target: HLA-A*2401 (human); test: inhibition of 125I probe peptide binding to purified HLA; IC50 standard/IC50 test
Can you tell me relative binding ratio for the items I'm about to list?
// no unit, no text: just the number

Asked: Which measured relative binding ratio value corresponds to CYQDTILWKDI [HER2/neu 162-172] ?
Given back: 0.0016

Asked: Which measured relative binding ratio value corresponds to LYISAWPDSL [HER2/neu 410-419] ?
Given back: 0.084

Asked: Which measured relative binding ratio value corresponds to GYLYISAW [HER2/neu 408-415] ?
Given back: 0.0044

Asked: Which measured relative binding ratio value corresponds to PYDGIPAREI [HER2/neu 922-931] ?
Given back: 0.0005
